# TARGET_SYSTEM: T1, NHERF3_1, Q5T2W1
# T1 sequence (Q5T2W1 4-100, limits assumed, looked up): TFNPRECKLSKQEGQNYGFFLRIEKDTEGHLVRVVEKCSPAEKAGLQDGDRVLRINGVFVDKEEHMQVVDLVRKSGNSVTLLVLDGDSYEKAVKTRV
# PROTOCOL_DETAILS: holdup assay
# Parameters: key: below the threshold = too weak to quantify, mostly under pKd 3.1 to 4
# MEASUREMENT_SETUP: plain residues with an end cap or a label only (N-terminal biotin on a linker: ado-ado)
Label rule, in plain words: pKd of 5 and up is yes (1), under 5 is no (0).

Please review the entries below; each comes with its answer.
>>> print(df.to_string())
                          binder   group
0  ETQVTAETVI [TMEM225B, P0DP42]  no (0)
1     SSALYGESDL [ACTN2, P35609]  no (0)
2     DDPSTAETVL [ABCA7, Q8IZY2]  no (0)
3    PLSPEQPTKL [TRIM50, Q86XT4]  no (0)
4    LPHGHSTTRV [NLGN4X, Q8N0W4]  no (0)

Query: // inclusive: pKd at least 5? input: VKPQVSESKL [ACOT8, O14734]
Result: yes (1)

Query: // inclusive: pKd at least 5? input: QHKTQLQTLI [BPIFA2, Q96DR5]
Result: yes (1)

Query: // inclusive: pKd at least 5? input: LPAHHNATRL [SLC34A1, Q06495;Q06495-1]
Result: yes (1)

Query: // inclusive: pKd at least 5? input: YRLAQESGLV [ABCC6, O95255]
Result: no (0)
